FYI, the data here is from PubChem BioAssay AID1259407.

Tested on: CCRIS mutagenicity, Ames/micronucleus/aberration tests
Assay: CCRIS mutagenicity studies
Conditions: Test System: AMES SALMONELLA TYPHIMURIUM; Strain/Indicator: TA1535; Metabolic Activation: NONE; Method: PREINCUBATION
Calls of active or inactive are those of the source. No rule for the calls is given here.
Select the matching outcome among 1.0 for active, 0.0 for inactive

Worked examples, 3 molecules total:
In [3]: df
Out[3]:
                                   molecule                               target_desc  class_assignment
0  C[O+](C)C.[Cl][Sb-]([Cl])([Cl])([Cl])([Cl])[Cl]  CCRIS mutagenicity, Ames/micronucleus/aberration tests               0.0
1  CC(=O)c1cc(NC(=O)Nc2ccc(OCC(O)CNC(C)(C)C)c(C(C)=O)c2)ccc1OCC(O)CNC(C)(C)C (configuration not stated)  CCRIS mutagenicity, Ames/micronucleus/aberration tests               0.0
2                              Oc1cccc(O)c1  CCRIS mutagenicity, Ames/micronucleus/aberration tests               0.0

What was the test verdict on `CO[C@@H]1C[C@](C)(O)Cc2cc3c(c(O)c21)C(=O)c1c(O)cc2c(c1C3=O)O[C@@H]1O[C@@]2(C)[C@H](O)[C@@H](N(C)C)[C@@H]1O` ?
0.0

For CC(=O)OC(C(C)=O)N(C)N=O (configuration not stated) then?
1.0

Now try `CCCCOC(=O)c1ccccc1C(=O)OCCCC` .
0.0

What about this molecule? `CCCCCCCCCC[N+](C)(C)Cc1ccccc1`
0.0

Then what about the molecule `C=CCNCC=C` ?
0.0

* * *

Tested on: CCRIS mutagenicity, Ames/micronucleus/aberration tests
Experiment: CCRIS mutagenicity studies
Settings: Test System: AMES SALMONELLA TYPHIMURIUM; Strain/Indicator: TA98; Metabolic Activation: RAT, LIVER, S-9, AROCLOR 1254; Method: STANDARD PLATE
Activity calls are given as the source filed them. How the calls were made is not given here.
Can you answer with just one of these options? active, inactive

Solved entries:
In [3]: df
Out[3]:
                           smiles_notation                               target_desc  class_assignment
0       C[Si](C)(C)O[Si](C)(C)O[Si](C)(C)C  CCRIS mutagenicity, Ames/micronucleus/aberration tests          inactive
1  COc1cc(-c2oc3cc(O)cc(O)c3c(=O)c2O)ccc1O  CCRIS mutagenicity, Ames/micronucleus/aberration tests          inactive
2                   C=CC(=O)OCCCCOC(=O)C=C  CCRIS mutagenicity, Ames/micronucleus/aberration tests          inactive
3         CC(=O)N(O)c1ccc2c(c1)Cc1ccccc1-2  CCRIS mutagenicity, Ames/micronucleus/aberration tests            active

Please share the test call associated with `Cc1cnc2c(n1)c(C)cc1c2nc(N)n1C` .
active

Moving on to `CCOP(=S)(OCC)SCn1c(=O)oc2cc(Cl)ccc21`
inactive

Next record, please: `O=C(O)/C=C/c1ccccc1[N+](=O)[O-]`
inactive

Consider next the molecule `O=c1[nH]c2ccccc2o1` in the same way.
inactive

Would you mind doing `N#Cc1cc([N+](=O)[O-])ccc1N=Nc1ccc(N(CCO)CCO)cc1` as well?
active

Would you kindly repeat that for `C=Cc1ccncc1` ?
inactive

Now consider `CC[C@@]1(O)C[C@H](O)c2c(cc3c(c2O)C(=O)c2c(O)cccc2C3=O)[C@H]1C(=O)OC` .
active

Query `O=c1ccc2cc3ccoc3cc2o1` next
inactive

Also need `C=CCc1ccc(O)c(OC)c1` , thanks.
inactive
